Where do these numbers come from? They come from ChEMBL document CHEMBL1143966.

Experiment: Inhibition of soybean 15-lipoxygenase
Design: species or system Glycine max
pIC50: −log10 of the molar value.
endpoint: pIC50

Use the examples below as a reference point.
smilesEntry | experimentalValue
C=CCc1ccc(OC(=O)c2cccc(C)c2)c(OC)c1 | 4.94
C=CCc1ccc(OC(=O)c2ccccc2F)c(OC)c1 | 5.17
C=CCc1ccc(OC(=O)C23CC4CC(CC(C4)C2)C3)c(OC)c1 | 7.77

I: C=CCc1ccc(OC(=O)c2ccc(OC)cc2)c(OC)c1
II: C=CCc1ccc(OC(=O)c2ccccc2C)c(OC)c1
Query block: Of I versus II , which is the one with smaller reported pIC50? Provide the label of your selected option as the answer.
Result block: II
(II: 4.11, I: 4.72)
